These entries and their values trace back to PubChem BioAssay AID2315.

Documented inhibition across a set of compounds
Assay: A qHTS for Small Molecule Inhibitors of Shiga Toxin; further: 0% is about no effect
Settings: Vero cells, Shiga toxin protein synthesis inhibition reporter; at 38.7 µM, stronger effect = higher value
About 27,000 (9.3%) of roughly 290,000 compounds were called active. The sample as a whole holds a higher share of actives than the screen did.
Provide the reading as a plain figure in %.

Worked examples, 5 compounds total:
>  <compound>
COc1ccc(C(=O)Nc2cccc(S(C)(=O)=O)c2)cc1

>  <inhibition [%]>
21.9

$$$$
>  <compound>
Cc1ccc2c(c1)N(S(=O)(=O)c1cc(-c3cc(C)no3)ccc1C)CCO2

>  <inhibition [%]>
18.2

$$$$
>  <compound>
Cn1c(CNC(=O)c2ccco2)nnc1SCC(=O)N1CCN(c2ccccc2)CC1

>  <inhibition [%]>
4.34

$$$$
>  <compound>
CC(C)(C)OC(=O)N/N=C/c1cn(-c2ccccc2)nc1-c1cccnc1

>  <inhibition [%]>
-2.23

$$$$
>  <compound>
O=[N+]([O-])c1cccc(S(=O)(=O)NCc2ccccn2)c1

>  <inhibition [%]>
-7.29

$$$$

Record "CCOc1ccc(C(=O)Nc2ccc(CN3CCOCC3)cc2)cc1Cl" . Reported inhibition: 9.47

Lab note: measured inhibition of "COc1ccc(C(=O)Nc2ccc(CN3CCOCC3)cc2)cc1" was 80.4

The compound listed as "COc1ccc(NC(=O)c2ccc(OC)cc2)cc1" shows inhibition equal to 105

inhibition in this record for "COC(=O)c1sccc1N/N=C(\C)c1ccc(F)c(Cl)c1" : -5.96

Kindly note the recorded inhibition for "Cc1ccc(S(=O)(=O)c2nc(-c3cccs3)oc2NCc2cccnc2)cc1" , which is -2.32

Data point: "C=CCNC(=O)/C=C/c1ccc(C(C)C)cc1" ; inhibition = 96.1

Lab note: measured inhibition of "O=C(Nc1ccccc1-c1nc2ccccc2[nH]c1=O)c1cccs1" was -5.13

Measured inhibition, "Nc1ccccc1SCc1cc([N+](=O)[O-])cc2c1OCOC2" : 62

The compound listed as "O=C(Nc1ccccc1)Nc1ccc(C(F)(F)F)cn1" shows inhibition equal to 53

Record "CNC[C@H](CC1CCCCC1)NC[C@H](NCCC1CCCC1)[C@H](C)O" , field inhibition: -0.811

The compound "C/C(=N\Nc1nc(Nc2ccccc2)nc(N2CCOCC2)n1)c1cccs1" showed inhibition equal to -5.79

Input "Cc1cccc(C(=O)Nc2ccc(Oc3cnccn3)cc2)c1" . Output inhibition: 57.2

GET /value?item= "COc1ccc(NC(=O)c2ccc(C#CC(C)(C)O)cc2)cc1" &field=inhibition returns 28

Data point: "Cc1noc(C)c1/C=N/Nc1ccc2ccccc2n1" ; inhibition = 64.2

Please fill in: inhibition reported for "CCN(CC)CCCNC(=O)COc1ccc2oc3c(c2c1)CCCC3" = -7.61

For "CC(C)CNS(=O)(=O)c1ccc(CCC(=O)NCc2ccc(Cl)cc2)cc1" the compound record lists inhibition as -10.9
